# Assay remarks: qHTS assay for environmental chemicals that activate the Aryl hydrocarbon Receptor (AhR) signaling pathway (AID 651777); further: % of control where 0% means no effect
# Stated conditions: 1A2-DRE human hepatoma cells, luciferase, 24 h; stronger effect = higher value
Records with an inconclusive call do not appear.

| Compound structure string | Unit text | activation |
| --- | --- | --- |
| [Cd+2].[Cl-].[Cl-] | % | 0.0733 |
| CCC[CH2][Sn]([CH2]CCC)([O]C(C)=O)[O]C(C)=O | % | -0.036 |
| CCOP(=O)(OCC)SCCSCC | % | 1.43 |
| C=C(C)CN(CC)c1c([N+](=O)[O-])cc(C(F)(F)F)cc1[N+](=O)[O-] | % | 1.28 |
